assay: NCI Yeast Anticancer Drug Screen. Data for the bub3 strain (AID 167); details: S. cerevisiae bub3 mutant strain, at 50.0 µM, active compounds read high
This is part of a sample that, as a whole, favours compounds with a hit. Of some 79,000 tested, about 15% had one in any assay. *1 amine or outer side, *2 acyl side, *3 side chain or, on linkers, in order; H or OH if unused. Where a SMILES comes first, the peptide text is derived from it. Bridges are numbered along the chain shown (N, C = ends). [ ]: non-standard residue; d: D form. The star is where a group is joined. X16 = CC(C)C(C)C(C(=O)[*:2])N(C)[*:1]; Picolinoyl(3-OH) = O=C(c1ncccc1O)*; NMePhg = CN[CH](C(=O)O)c1ccccc1; Hyp = O=C(O)[CH]1C[CH](O)CN1; Sar = CNCC(=O)O
Give label 1 when the value for growth inhibition is at least -10%. Give label 0 when it is less.

# count of solved cases: 5
molecule | classification
O=C1OCC2C(=O)N3Cc4cc5ccccc5nc4C3CC12 (stereo not drawn) | label 0
NC1=NS(=O)(=O)Nc2nc(-c3ccc([N+](=O)[O-])o3)[nH]c21 | label 1
COc1ccc(C(C#N)NNc2nc(C)cc(=O)[nH]2)cc1OC (stereo not drawn) | label 0
COc1ccc(/C=C/c2onc3c(=O)n(C)nc(-c4ccccc4)c23)cc1 | label 1
COc1ccc(/C=C/Cc2cc3c(cc2OC(C)=O)OCO3)cc1 | label 1

(Q) Entry CCC(=O)c1ccc([N+](=O)[O-])cc1 : is its growth inhibition no less than -10%?
(A) label 1

(Q) Entry CCCCCCCC/C=C\CCCCCCCC(=O)N1CCN(C(=O)CCCCCCC/C=C/CCCCCCCC)C1 : is its growth inhibition no less than -10%?
(A) label 1

(Q) Entry CC(C)CC1NC(=O)C(NC(=O)c2ncccc2O)C(C)OC(=O)C(c2ccccc2)N(C)C(=O)C(C)NC(=O)C(C(C)C(C)C)N(C)C(=O)CN(C)C(=O)C2CC(O)CN2C1=O (stereo not drawn) ({Picolinoyl(3-OH)}-TL[Hyp][Sar][X16]A[NMePhg]; ester 1-C; configuration not given here) : is its growth inhibition no less than -10%?
(A) label 0

// provenance: PubChem BioAssay (NCI)
